- System: CDC2L5;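 further: KINOMEscan kinase panel screen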
- Construct: gene CDK13
- measurement parameters: concentration: 1 μM, replicates: in singlicate; n = 1
Give measured %Inh for each item. Keep answers brief.
Supply the numeric figure in %, leaving out any unit text.

Field request: %Inh | item: COc1cc2c(cc1OCCN1CCN(C)CC1)ncc1c3ccc(C#N)cc3[nH]c21 0

Given O=C1Cc2cc(Nc3nc(NCc4cccc(S(=O)(=O)C(F)(F)F)c4)ncc3C(F)(F)F)ccc2N1 , state its recorded %Inh. 12

// query %Inh value for entry Cc1nnc(-c2ccc3ncc(-c4ccc(S(C)=O)cc4)n3c2)o1 (stereo not shown) 25

What value of measured %Inh is listed for CN1c2ccc(CNc3ccc(F)cc3)cc2-c2c(cnn2C)S1(=O)=O ? 15

State the recorded %Inh for this entry: NS(=O)(=O)c1cccc(-c2ccc3ncc(N4CCOCC4)nc3c2)c1 0

Value lookup for %Inh; key = COc1ccc(CNC(=O)NC2CCN(c3ccnc(Nc4ccc(OC)cc4)n3)C2)cc1 (stereo not shown) 0

// lookup %Inh for NCC(NC(=O)c1cc(-c2cn[nH]c2)c(-c2ccnc3[nH]ccc23)s1)c1ccccc1.O=C(O)C(F)(F)F.O=C(O)C(F)(F)F (stereo not shown) 32

What %Inh value was documented for this molecule, CN1c2ccc(NCc3ccc(F)cc3)cc2-c2c(cnn2C)S1(=O)=O ? 27

Please look up its %Inh: Fc1ccc(-c2nn3c(OCC(F)(F)F)cccc3c2-c2ccncc2)cc1 0

Look up %Inh for this molecule: Cc1cccc(Cn2ccn3c(=O)cc(N4CCOCC4)nc23)c1 0

For the molecule NS(=O)(=O)CCc1cccc(Nc2nccc(-c3c(-c4cccc(NC(=O)c5c(F)cccc5F)c4)nn4ccccc34)n2)c1 , what %Inh is on record? 0

// query %Inh value for entry Cl.Nc1ncnc2occ(-c3ccc(NC(=O)Nc4cc(C(F)(F)F)ccc4F)cc3)c12 97.4

Entry CCn1cnc2c(N)ncnc21 has what %Inh? 0
